Provide the reported Number of Viable Cells (cells) of each item.
Test system: Fibroblasts derived from human normal skin (CRL-1836; ATCC)
runDescription: Toxicity test: number of viable cells with Cell Counting Kit-8
experimentalContext: peptide 10 μg/ml, cells after 72 hours of culture
Where a SMILES comes first, the peptide text is derived from it.

Illustrative cases are given below, each with its answer.
[
  {
    "compound": "CC(C)C[C@H](N)C(=O)N[C@@H](CCC(=O)O)C(=O)N[C@@H](Cc1c[nH]cn1)C(=O)N[C@@H](C)C(N)=O [C-terminal-Amidated LEHA] (H-LEHA-NH2)",
    "targetEntity": "Fibroblasts derived from human normal skin (CRL-1836; ATCC)",
    "result": "2.6 × 10^4 cells"
  },
  {
    "compound": "CC(C)C[C@H](N)C(=O)N[C@@H](CCC(=O)O)C(=O)N[C@@H](CCCCN)C(=O)N[C@@H](C)C(=O)O [LEKA, Leu-Glu-Lys-Ala] (H-LEKA-OH)",
    "targetEntity": "Fibroblasts derived from human normal skin (CRL-1836; ATCC)",
    "result": "3.6 × 10^4 cells"
  },
  {
    "compound": "CC(C)C[C@H](N)C(=O)N[C@@H](CCC(=O)O)C(=O)N[C@@H](Cc1c[nH]cn1)C(=O)N[C@@H](C)C(=O)O [LEHA, Leu-Glu-His-Ala] (H-LEHA-OH)",
    "targetEntity": "Fibroblasts derived from human normal skin (CRL-1836; ATCC)",
    "result": "2.9 × 10^4 cells"
  }
]

Now examine the next entry.
So for CC(=O)N[C@@H](CC(C)C)C(=O)N[C@@H](CCC(=O)O)C(=O)N[C@@H](Cc1c[nH]cn1)C(=O)N[C@@H](C)C(=O)O [N-terminal-Acetylated-LEHA] (Ac-LEHA-OH) , the logged Number of Viable Cells (cells) turned out to be 2.8 × 10^4 cells
